Measured IC50, listed per entry.
System: PC-6
Test: In vitro inhibitory activity against Human lung small-cell carcinoma (PC-6) cell line.
Assay type: functional, cell-based
Express it in µg/mL; write the number only.

Q: Tell me the measured IC50 of C=C1C(n2cc(F)c(N)nc2=O)O[C@H](CO)[C@@H]1O (some centres undefined) , please.
Ans: 16

Q: Tell me the measured IC50 of C=C1C(n2ccc(N)nc2=O)O[C@H](CO)[C@@H]1O (some centres undefined) , please.
Ans: 39

Q: Tell me the measured IC50 of Nc1ccn([C@@H]2O[C@H](CO)[C@@H](O)[C@@H]2O)c(=O)n1 [CYTARABINE] , please.
Ans: 50

----------
Measured IC50, listed per entry.
System: L1210
Assay: In vitro cytotoxic activity against Murine leukemia L1210 cells.
Assay type: functional, cell-based
Conditions: Mus musculus

Here are 3 molecules together with their reported answers.
Q: Tell me the measured IC50 of C=C1C(n2cc(Cl)c(N)nc2=O)O[C@H](CO)[C@@H]1O (stereo partly specified) , please.
Ans: > 100 µg/mL

Q: Tell me the measured IC50 of C=C1C(n2ccc(N)nc2=O)O[C@H](CO)[C@@H]1O (stereo partly specified) , please.
Ans: 0.37 µg/mL

Q: Tell me the measured IC50 of C=C1C(n2cc(C)c(=O)[nH]c2=O)O[C@H](CO)[C@@H]1O (stereo partly specified) , please.
Ans: 50 µg/mL

Continuing:
Q: Tell me the measured IC50 of `C=C1[C@H](n2ccc(=O)[nH]c2=O)O[C@H](CO)[C@H]1O` , please.
Ans: > 100 µg/mL

Q: Tell me the measured IC50 of C=C1C(n2cc(CC)c(=O)[nH]c2=O)O[C@H](CO)[C@@H]1O (stereo partly specified) , please.
Ans: > 100 µg/mL

Q: Tell me the measured IC50 of C=C1C(n2cc(I)c(=O)[nH]c2=O)O[C@H](CO)[C@@H]1O (stereo partly specified) , please.
Ans: > 100 µg/mL

Q: Tell me the measured IC50 of C=C1C(n2cc(I)c(N)nc2=O)O[C@H](CO)[C@@H]1O (stereo partly specified) , please.
Ans: > 100 µg/mL

----------
Measured IC50, listed per entry.
System: KB
Test: In vitro inhibitory activity against Human oral epidermoid carcinoma (KB) cell line.
Assay type: functional, cell-based
Express it in µg/mL; write the number only.

Here are 3 molecules together with their reported answers.
Q: Tell me the measured IC50 of `O=c1[nH]cc(F)c(=O)[nH]1` , please.
Ans: 12.1

Q: Tell me the measured IC50 of C=C1C(n2cc(F)c(N)nc2=O)O[C@H](CO)[C@@H]1O (stereo not given in full) , please.
Ans: 1.4

Q: Tell me the measured IC50 of C=C1C(n2ccc(N)nc2=O)O[C@H](CO)[C@@H]1O (stereo not given in full) , please.
Ans: 1.4

Turning now to a further record.
Q: Tell me the measured IC50 of `Nc1ccn([C@@H]2O[C@H](CO)[C@@H](O)[C@@H]2O)c(=O)n1` , please.
Ans: 30.5

----------
Measured IC50, listed per entry.
System: L1210
Test: In vitro cytotoxic activity against Murine leukemia L1210 cells.
Assay type: functional, cell-based
Settings: Mus musculus
Express it in µg/mL; write the number only.

Q: Tell me the measured IC50 of C=C1C(n2cc(F)c(N)nc2=O)O[C@H](CO)[C@@H]1O (some centres undefined) , please.
Ans: 0.33

Turning now to a further record.
Q: Tell me the measured IC50 of C=C1C(n2cc(C)c(N)nc2=O)O[C@H](CO)[C@@H]1O (some centres undefined) , please.
Ans: 58
